Sourced from the domain aggregation screens of Martell et al. (2025)

Recorded soluble fraction (log2) values for a group of sequences are listed next.
- protocol-details: soluble fraction after stress (log2 fold change); higher = more stays soluble; pooled small domains, quantitative proteomics
- study-conditions: stress: pH 4

sequence-input	comparison-operator	soluble fraction (log2)
HMKNEFRVYPNPANKEIVTFNQTQDIEVYDTLGKLVLKAKNTNTLDTKSFHSGIYFIKTGSGLTRKLVV	≥	0.43
HMDLLKANNLSQINVDKLTDEEILKYSQQLKQSGLTESQAEQIAIARGMPATEIAKLKQRLISLTNMQ	=	0.213
HMDNMTEMQKAVTALIEKSGGSIDNLSVIYDHLKKKYPSFDLKDYGYSRFSSFLRSMENIMVRGNAVTLRS	=	0.0508
HMAIIQSNNIFKSQKEIVDEILVELDIPKDKWNFFHMLISSGYKDEFDTNRIYEIIQTNYNMMDR	=	-0.693
HMHSIFPVIRSTSFPTKSNDGELFITSDHTAETRIYYALDLGNTYRLIDQKVMNEINLTESLVKETARF	=	-1.63
HMNAISIDEAKKIALAKVSGASDQHIRIEADHDDGRLVYEGEIHYGRVEYEFEIDGSTGAIIEWDADRK	=	-0.0156
HMLMNADVLVKYQEDHWIVISEKASQASDTFDKKEQAVERAKEIAKNKNSSVKVYKQDGTLQDTFDYS	=	0.306
HMAMSDFDALSNRISTLSQGRASAVRMKDGIVSLVLDIGGLSAEERKAMTAAIEGEGRGYPSVTQVRILET	=	0.0485
HMSSKAVLEKFEALFIDQMLQSMRKATVRSELFDSEGIKLYESLFDKEISEELAKSGGLGLTKDLEQQL	=	-1.35
HMQISGSEELEKIVQTVLEKNTDVVEEYKSGKTKVFAFLMGQVMKESRGKANPRLAKDILEKFLA	=	0.177
HMRIATVTPIEEDQASDRVVAVYNDIKSTKQIDFIPNFWKVIAVNPDLLEQVWGQLKTLMHPEEVG	=	-0.948
HMTVSADIIQKIIKTSTTDENIITIDSISNSISKLALSKITAEDIIEILEASSLVLRNSNGSWTVL	=	-0.716
HMQNKYIIKQGNSGELVEVLQELLNLKQDGVFGPQTKKAVIAFQQKHKLVADGIVGPMSWRKLNFNPEELF	=	-0.282
HMITTLLVENLQDVGMRLDHYLVYNLIKYSRSHIQSFIRSGDIRVNGKKVKTGYSLELKDLIHIEMP	=	-1.1
HMRRMAYLVGQRGLAMGDFISGTGQVRIGDTVWRAEAVEGELVRTGDTVVVEGAKMTTAIVRRVM	=	-0.302
HMYMWQVEDLLRANELDIENIKKTIIDHYQLDDAQKSELTRWYEDLINMMRLEGVTKEGHLQINK	=	-1.75
HMRLADHVVEKLLALVQERGLQPGQKLPAERQLAEVLGVSRTSVREAIQKLVSQGVLSARRGDGTYVQS	=	0.0683
HMVLSKGAKELLDFIMREGEVTTSKVVQKFGGSAQNASAKLKKLYATGLILGSKAVAESGGLEFVYKA	=	0.1
HMVGGIAIGQFNVPRGSVKVTAGGRLLQEGLDYTVNYQAGRVQILDESLKNSNVPIEISTESNS	=	-0.111

* * *

- protocol-details: soluble fraction after stress (log2 fold change); higher = more stays soluble; pooled small domains, quantitative proteomics
- study-conditions: stress: pH 4
readout-name: soluble fraction (log2)

sequence-input	readout-name	experimental-value
HMKTATAKIKATPFGWLRVRETPSLNGAEIARVNSGESYKILERGEGWIKIKVSDTVEGWVSEAYVELS	soluble fraction (log2)	-0.236
HMQNNWFYEENGQRKGPVSENEMVQFIKSSVISHGTSVWKQGFPDWLKVENTDLRVHLDNSAP	soluble fraction (log2)	-0.611
HMVVKSPLEMAFDKFREMRKKIRKPMTERAEELIWKELSKLAGEDSDLKIEILEQSIRNGWQDVYAVK	soluble fraction (log2)	-0.064
HMDNMFMPPVNGWDVRQALQKLQNEMGLQVKMEYSPSETITEGYVISYTPIDGMKVEKGDEVTLVISTGPE	soluble fraction (log2)	-0.675
HMNEKEAEEAAEAQTEVPDVTGMAPAQAKNMLYQAGLSSEYRGEGETVSRQLPPAGETVNRGTKAVLYL	soluble fraction (log2)	0.2
HMSDPEAFIRQTVAAAEPEGIALSVLGKRVRGKFRTFKLRDLGYAQFRPYLGDLDGIKVEQRDGQSYARLD	soluble fraction (log2)	0.045
HMQKDAYVPDIISKLKSSRMIVVEGTIYPLLTRLKNTGLLSYRWEESLQGPPRKYYSITEQG	soluble fraction (log2)	-0.0816
HMIKEVGYEKFMQMTEEEDIGRVEIDQEENQITFTDKDETAIYKTGMVDDPDLTERLYDAGAEFS	soluble fraction (log2)	-0.591
HMHPTEKNLTSLLADGSFYMNQNKLETAYDTFTKTIELDPSWAEAWNKRATVLYLMGKYELSQADIDQV	soluble fraction (log2)	-0.176
HMENVMLRNFAIQATEAGVIKLLEDQRTFVWGSNNKKFMTVPFDEHPYSAMAAFFKTDEGLEIYKSIEKKF	soluble fraction (log2)	-1.43
HMALPEHIEPFLRGLGQALAEGDSYEDVQERLLRAYPYLDSTEFQTALARVIFISDLWGRLN	soluble fraction (log2)	-1.02
HMDDGNHTEYIVLEKAKFYDEAGEYEEGRDLVLSFDKYQDNWKLVYTLGVFNKKLNNLEEARKYYKQALE	soluble fraction (log2)	-0.846
HMARAPIYPDGLTQREVEVLSLVAAGKTDREIAEELFIALRTVTTHVGNILNKIGAANRTEAAGYATRQGL	soluble fraction (log2)	-1.4
HMRIHKQLGDRIRNLRLSSGMNQEELAFKSGISAAHLGQIERGLKSPTISTIQKIAKALNVTLPILF	soluble fraction (log2)	0.311
HMAKSKYETHVLPNLDKIIKWAKAGATAKEIAANLHIAYSTFRKYLDEGQEGDERYAALSAAFAQA	soluble fraction (log2)	0.22
HMGDPVRVDKFLHDMNVGTRSQIRKLIKEKAVFVNDVVAKSGRVKVDPVVDQVRLGEQVITYQ	soluble fraction (log2)	0.0055

* * *

Recorded soluble fraction (log2) values for a group of sequences are listed next.
- protocol-details: soluble fraction after stress (log2 fold change); higher = more stays soluble; pooled small domains, quantitative proteomics
- study-conditions: stress: pH 4

sequence-input	soluble fraction (log2)
HMNQRTATVTASQLNVRSGPSTAYSIVHVLRQGETVEVIGESDGWYQIRLKDGRVGWSSGQYLNLN	-0.481
HMITGSIQPKNGKYYAVLNLYDHTGKRRPKWVSTGYTVKGNKKKAQEVLNELTRRYSAQLPPSK	0.22
HMGEQETILKGDVNRDGVVDVNDVTHLQIHISNDDKNPLIDVTNKAWFDAADMYGDGKLDILDATALQIYI	-0.145
HMPPDVIENIFKNDANKIIDLYNMAPRGQKETIVEMIKNKRLQGINVDANVLVKLGELTGIDFVN	-1.37
HMQLYSLEVLSKKKVDLIENNKNLINLYFNKENGEYSYRLIFKNRKELYQVKDTLDNSSDVVSIKLDL	-0.181

* * *

- protocol-details: soluble fraction after stress (log2 fold change); higher = more stays soluble; pooled small domains, quantitative proteomics
- study-conditions: stress: pH 4
Decide by soluble fraction (log2): equal to or exceeding 0.06 means Satisfied, less means Not satisfied.

sequence-input	class-label
HMLKEGIKEKINQLQVYADKNDNIIWYDRVVDILSDKDDSVTDEMIEAAIRTLEEAGISVERKQ	Not satisfied
HMEDPPISQEQRQALFKMAHDHLGKDEGNKAILTLIQSHGLNSTTGMKVSTYNTIMEELVSTIQSLAA	Satisfied
HMDLSYPFTTVTTDNVNMRRSASSSSVVLERIDKGDSITVLGTSGNYYKVSYNDRTGYVLKQYVDVSAATT	Not satisfied
HMTDKLIAYSVDGILNVITSEAQSVKVYAIDGRLVRILQLGEGRNEVSGLAKGIYIVDNRKVAV	Not satisfied
HMETIGKRVRAARQELGLTMKQLHEQTGLSTGNISDIENDRNTPSVSSLVALGRALRRSLDWLLTGEE	Not satisfied
HMAERLQARIDAPGVRLDKALAETFPTLSRARLQALLADGAVTRDGQTVSNGSAKAQPGLYVVALPPVA	Satisfied
HMSPQPPNQEAVRTRILDQAAHLFLTIGYAETTVRRIAGAVGIKAASLYHHFGSKDEVFESILIR	Satisfied
HMIKIDESTLSEDELKIFEILKIEDKNIENIAIESKILPGKLLATLMNMEMKKIVVQYPGKVFGLNRKLK	Not satisfied

* * *

- protocol-details: soluble fraction after stress (log2 fold change); higher = more stays soluble; pooled small domains, quantitative proteomics
- study-conditions: stress: pH 4
Recorded soluble fraction (log2) values for a group of sequences are listed next.

sequence-input	soluble fraction (log2)
HMVTDTGAIEKVIDEVIAANPKQVQEIADQRAAGHEKPKTLGWLVGQIMKASGGKVNPAAVNEILLKKLG	0.00199
HMIDQIAEQLQQRLAVDTAFATIQRDYPDVIANKDIELLTAIKVNQKIAEGASRASAMLESAKEVYETL	-0.329
HMRKDEFLQTLRRALNGNVPPRVVEENVRYYDGYISDEVRKGRSEEEVIEEIGDPRLIARTIEDTT	-0.187
HMAVGVFQKEDGYWGYRFSIIVDGKTIARRKFTDENGSKLRTKSEAVKARAAAMVAARMERVS	0.24
HMVKDLEIETIRLNNLLASDAEEVLKSLGGAKPTYKAVAVPGSNSLVIEGTKADLIKLKSIINALEDGS	-0.316
HMITNLEPFKDFVRGFSGLHLEGVGQEKLAAALDERIRKTGSANERDYLQLIMEDVAERLKLINILT	-1.17
HMTRQRQLIYNIIQRADDHPTAEMIYARAKAEMPSIAFGTVYRNLKLMVDAGEILHIPVAGEPDRYDK	0.142
HMSLPTSDWKRALSLFDEALSLPPDARDAWLAHTIAREPAVSPLLQKLLGAHRRVETNDILATLPR	-0.274
